Biological target: T1, PEAK2^IDR1 (residues 802-1406), from insect cells, phosphorylated by Src (human, UniProt Q86YV5 802-1406, phosphorylated with Src kinase, sites not stated; phosphorylation of the tandem site 14-3-3 motif (RAASSP) found by proteomic analysis; biotin (EZ-Link NHS-PEG4-Biotin, 1:1 molar ratio))
T1 construct: human PEAK2 (SgK223, PRAG1), UniProt Q86YV5, residues 802-1406; also called PEAK2-IDR1 (+ Src phosphorylation); source: Sf21 insect cells, purified; phosphorylated in vitro with recombinant Src kinase domain
T1 sequence (looked up): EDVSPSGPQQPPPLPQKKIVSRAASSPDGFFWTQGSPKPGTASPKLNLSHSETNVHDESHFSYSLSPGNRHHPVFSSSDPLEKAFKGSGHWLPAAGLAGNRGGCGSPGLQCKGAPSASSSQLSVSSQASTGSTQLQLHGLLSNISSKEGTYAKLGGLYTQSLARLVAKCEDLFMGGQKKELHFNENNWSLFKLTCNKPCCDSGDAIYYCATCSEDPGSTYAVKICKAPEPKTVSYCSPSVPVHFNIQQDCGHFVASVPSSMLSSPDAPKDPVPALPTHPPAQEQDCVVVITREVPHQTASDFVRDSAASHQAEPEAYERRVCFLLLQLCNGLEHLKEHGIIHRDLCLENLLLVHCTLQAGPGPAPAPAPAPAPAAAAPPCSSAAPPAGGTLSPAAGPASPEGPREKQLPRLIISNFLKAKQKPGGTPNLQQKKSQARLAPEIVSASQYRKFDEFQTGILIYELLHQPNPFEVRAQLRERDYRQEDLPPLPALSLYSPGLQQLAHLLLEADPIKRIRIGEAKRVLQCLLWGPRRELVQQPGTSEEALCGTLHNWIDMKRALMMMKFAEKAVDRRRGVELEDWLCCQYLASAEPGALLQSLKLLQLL
Experiment: SPR; biotinylated PEAK proteins (with or without Src phosphorylation) captured with a biotin CAPture kit, CrkII NSH3 as analyte; Biacore 8K+, 20 °C, HBS-TP (150 mM NaCl); 1 M NaCl regeneration; steady state
Conditions: both partners purified
pKd: −log10 of the molar value.

| binder | pKd |
| --- | --- |
| CrkII N-terminal SH3 domain (CrkII^NSH3, residues 134-191) (domain or fragment, human, UniProt P46108-1 134-191, looked up, human CrkII NSH3 domain, UniProt P46108-1, residues 134-191; Amine coupled to a CM5 chip in a2; analyte in a4; in the syringe in ITC) AEYVRALFDFNGNDEEDLPFKKGDILRIRDKPEEQWWNAEDSEGKRGMIPVPYVEKYR | 5.28 |
